testTarget: T1, HLA-A2/E6(29-38) tetramer (human; HPV 16)
T1 construct: also called E6(29-38) peptide-MHC tetramer; E6 tet
measurementDescription: flow cytometry, tetramer + anti-CD8; transfected mix of CD8- and CD8+ Jurkat-derived cells;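 note: CD4+ and CD4+/CD8+ cell mixtures transiently given TCR plasmids, analysed 48 h post-transfection by flow cytometry with E6(29-38)–HLA-A*02:01 tetramer plus anti-CD8 antibody co-stain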
quantity: % cells E6 tet+/CD8- quadrant (%)

binder="TCR 15 (codon-optimized, cysteine-modified) (TCR, V domains shown) V domain 1: AQKITQTQPGMFVQEKEAVTLDCTYDTSDQSYGLFWYKQPSSGEMIFLIYQGSYDEQNATEGRYSLNFQKARKSANLVISASQLGDSAMYFCAMKPGGYNKLIFGAGTRLAVHP V domain 2: DAGVIQSPRHEVTEMGQEVTLRCKPISGHNSLFWYRQTMMRGLELLIYFNNNVPIDDSGMPEDRFSAKMPNASFSTLKIQPSEPRDSAVYFCASSLVGRSRTEQYFGPGTRLTVTE" quantity="% cells E6 tet+/CD8- quadrant" observed=40.2
binder="TCR 17 (codon-optimized, cysteine-modified) (TCR, V domains shown) V domain 1: AQKITQTQPGMFVQEKEAVTLDCTYDTSDPSYGLFWYKQPSSGEMIFLIYQGSYDQQNATEGRYSLNFQKARKSANLVISASQLGDSAMYFCAMREGRGDKIIFGKGTRLHILP V domain 2: DVKVTQSSRYLVKRTGEKVFLECVQDMDHENMFWYRQDPGLGLRLIYFSYDVKMKEKGDIPEGYSVSREKKERFSLILESASTNQTSMYLCASSLWGRSNQPQHFGDGTRLSILE" quantity="% cells E6 tet+/CD8- quadrant" observed=21.3
binder="TCR 30 (codon-optimized, cysteine-modified) (TCR, V domains shown) V domain 1: DAKTTQPPSMDCAEGRAANLPCNHSTISGNEYVYWYRQIHSQGPQYIIHGLKNNETNEMASLIITEDRKSSTLILPHATLRDTAVYYCIVRGTSVLQGNEKLTFGTGTRLTIIP V domain 2: EPEVTQTPSHQVTQMGQEVILRCVPISNHLYFYWYRQILGQKVEFLVSFYNNEISEKSEIFDDQFSVERPDGSNFTLKIRSTKLEDSAMYFCASSRQPSSGNTIYFGEGSWLTVVE" quantity="% cells E6 tet+/CD8- quadrant" observed=0.74
binder="TCR 21 (codon-optimized, cysteine-modified) (TCR, V domains shown) V domain 1: AQKITQTQPGMFVQEKEAVTLDCTYDTSDQSYGLFWYKQPSSGEMIFLIYQGSYDEQNATEGRYSLNFQKARKSANLVISASQLGDSAMYFCAMREGRVTGGGNKLTFGTGTQLKVEL V domain 2: NAGVTQTPKFQVLKTGQSMTLQCAQDMNHNSMYWYRQDPGMGLRLIYYSASEGTTDKGEVPNGYNVSRLNKREFSLRLESAAPSQTSVYFCASRPWGNQNTEAFFGQGTRLTVVE" quantity="% cells E6 tet+/CD8- quadrant" observed=32.7
binder="TCR 20 (codon-optimized, cysteine-modified) (TCR, V domains shown) V domain 1: AQKVTQAQTEISVVEKEDVTLDCVYETRDTTYYLFWYKQPPSGELVFLIRRNSFDEQNEISGRYSWNFQKSTSSFNFTITASQVVDSAVYFCALWTGANNLFFGTGTRLTVIP V domain 2: GAVVSQHPSRVICKSGTSVKIECRSLDFQATTMFWYRQFPKQSLMLMATSNEGSKATYEQGVEKDKFLINHASLTLSTLTVTSAHPEDSSFYICSASSLARRSYEQYFGPGTRLTVTE" quantity="% cells E6 tet+/CD8- quadrant" observed=34.1

src = patent US20210284709A1
